I'd appreciate it if you could supply inhibition at 10 µM values for the items below.
STUDY SYSTEM: GPIIb/IIIa (Homo sapiens, UniProt P05106+P08514)
Construct: Purification of GPIIb/IIIa from HEL cells; endogenous in cells; host or cells: HEL cells (HEL 92.1.7, ATCC TIB180); endogenous complex solubilized with Triton X-100 and purified in house
Sequence (P08514 32-887 limits assumed): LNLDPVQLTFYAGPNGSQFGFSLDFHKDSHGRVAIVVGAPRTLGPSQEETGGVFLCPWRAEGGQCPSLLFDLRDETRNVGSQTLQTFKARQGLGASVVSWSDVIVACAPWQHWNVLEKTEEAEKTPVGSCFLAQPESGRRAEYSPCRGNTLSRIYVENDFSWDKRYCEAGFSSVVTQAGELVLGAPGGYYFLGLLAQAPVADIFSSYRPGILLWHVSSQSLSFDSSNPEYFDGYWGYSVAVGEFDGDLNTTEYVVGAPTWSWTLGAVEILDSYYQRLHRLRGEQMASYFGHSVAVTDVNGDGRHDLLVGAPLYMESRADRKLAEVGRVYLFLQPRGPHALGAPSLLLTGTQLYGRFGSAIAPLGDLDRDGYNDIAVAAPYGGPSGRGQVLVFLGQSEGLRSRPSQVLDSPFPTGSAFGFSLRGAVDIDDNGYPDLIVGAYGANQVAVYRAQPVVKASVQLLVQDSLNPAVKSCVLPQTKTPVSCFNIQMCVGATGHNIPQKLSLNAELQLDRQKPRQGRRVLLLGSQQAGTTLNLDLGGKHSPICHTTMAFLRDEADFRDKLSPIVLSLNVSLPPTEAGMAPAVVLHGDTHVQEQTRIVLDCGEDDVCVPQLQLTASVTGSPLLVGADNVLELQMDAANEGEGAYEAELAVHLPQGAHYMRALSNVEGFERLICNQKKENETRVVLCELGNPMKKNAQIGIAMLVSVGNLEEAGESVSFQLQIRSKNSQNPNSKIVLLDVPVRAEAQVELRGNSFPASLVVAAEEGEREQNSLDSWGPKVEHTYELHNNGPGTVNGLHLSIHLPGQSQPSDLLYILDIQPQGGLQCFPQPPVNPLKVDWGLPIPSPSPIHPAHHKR
Sequence (P08514 891-1039 limits assumed): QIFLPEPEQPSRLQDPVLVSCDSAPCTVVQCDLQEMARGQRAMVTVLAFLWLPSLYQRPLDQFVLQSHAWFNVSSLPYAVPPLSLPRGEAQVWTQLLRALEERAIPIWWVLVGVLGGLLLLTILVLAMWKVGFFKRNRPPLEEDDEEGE
Sequence (P05106 27-788): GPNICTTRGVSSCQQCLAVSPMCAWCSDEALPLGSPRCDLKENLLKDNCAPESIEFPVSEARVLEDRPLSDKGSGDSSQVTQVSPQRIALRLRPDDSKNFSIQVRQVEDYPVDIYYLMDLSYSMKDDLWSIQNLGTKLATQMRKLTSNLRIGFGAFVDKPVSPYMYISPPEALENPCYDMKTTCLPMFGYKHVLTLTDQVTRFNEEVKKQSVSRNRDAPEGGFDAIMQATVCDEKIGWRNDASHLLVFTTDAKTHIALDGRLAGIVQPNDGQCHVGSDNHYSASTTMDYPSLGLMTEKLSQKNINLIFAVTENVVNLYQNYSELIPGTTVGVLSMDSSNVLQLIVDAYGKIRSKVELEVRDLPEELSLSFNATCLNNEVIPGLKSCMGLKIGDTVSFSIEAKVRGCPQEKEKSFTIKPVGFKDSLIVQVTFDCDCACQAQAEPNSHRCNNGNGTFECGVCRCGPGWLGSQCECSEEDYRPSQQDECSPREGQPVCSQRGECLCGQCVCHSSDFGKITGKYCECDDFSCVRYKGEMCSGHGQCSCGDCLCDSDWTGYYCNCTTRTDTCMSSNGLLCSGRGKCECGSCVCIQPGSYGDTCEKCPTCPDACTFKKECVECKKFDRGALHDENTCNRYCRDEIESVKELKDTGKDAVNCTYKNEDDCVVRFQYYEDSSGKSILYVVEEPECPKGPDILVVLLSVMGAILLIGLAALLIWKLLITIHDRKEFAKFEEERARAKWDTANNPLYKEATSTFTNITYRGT
METHOD: Inhibitory activity against binding of GPIIb/IIIa and fibrinogen
RUN CONDITIONS: Table 2; 10^-5 M; read-out: GPIIb/IIIa Fibrinogen Binding Inhibitory Activity
Answer in %, number only, no unit symbol.

Problem: Record request: inhibition at 10 µM value, item CCn1cc(C(=O)O)c(=O)c2cc(F)c(N3CCN4CCCC4C3)c(F)c21 (centres unmarked) [Compound 6]
Result: 83.3

Problem: # repeat for O=C(O)c1cn(C2CC2)c2cc(N3CCN4CCC[C@H]4C3)c(F)cc2c1=O [Compound 32]
Result: 71.2

Problem: Also NC1CCCN(c2c(F)cc3c(=O)c(C(=O)O)cn(C4CC4)c3c2F)C1 (centres unmarked) [Compound 38] ?
Result: 50.8

Problem: Next up: COn1cc(C(=O)O)c(=O)c2cc(F)c(N3CCn4ccnc4C3)c(F)c21 [Compound 45]
Result: 59.9

Problem: Same question, O=C(O)c1cn(Cc2nccs2)c2cc(N3CCC(C4CCNCC4)CC3)ccc2c1=O [Compound 58] this time
Result: 100

Problem: Record: O=C(O)c1cn(Cc2nccs2)c2c(F)c(N3CCN(c4cccnc4)CC3)c(F)cc2c1=O [Compound 66]
Result: 100

Problem: // query: CCn1cc(C(=O)O)c(=O)c2cc(F)c(SC3CCN(C)CC3)cc21 [Compound 5]
Result: 60.3

Problem: Do the same for NC1CN(c2c(F)cc3c(=O)c(C(=O)O)cn(C4CC4)c3c2F)Cc2ccccc21 (centres unmarked) [Compound 35] please
Result: 51.8
